Value source: the supplement of paper PMC6555819

- System: LXRb homodimer (NR concentration 270 nM)
- assayRemarks: PBM binding z-score (relative to random genomic background probes); higher = stronger binding; sequences stand for … in GC…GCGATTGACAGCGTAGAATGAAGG
List of PBM binding z-score values.
Answer using only a numeral; do not append any unit.

# seqText, PBM binding z-score
measured = [
    ("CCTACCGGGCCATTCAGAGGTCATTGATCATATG", 0.358),
]

If you can, please state the reported PBM binding z-score value of `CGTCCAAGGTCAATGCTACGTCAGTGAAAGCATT` .
0.412

If you can, please state the reported PBM binding z-score value of `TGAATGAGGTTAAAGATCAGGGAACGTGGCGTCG` .
0.375

If you can, please state the reported PBM binding z-score value of `CATCCAAGGTCATAGGAGGTCAGTGAAGACAGAT` .
1.99

If you can, please state the reported PBM binding z-score value of `CCTTACGGGTCACGAGGTAATAGCACGACGAGCG` .
0.00142

If you can, please state the reported PBM binding z-score value of `TCGAGTAGGTTAGTCGGGGCATCCAGCCAACATA` .
-1.13

If you can, please state the reported PBM binding z-score value of `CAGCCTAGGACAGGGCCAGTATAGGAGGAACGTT` .
-0.979
